Target: T1, EDIII-DV1 (E protein domain III of dengue virus serotype DV-1) (dengue virus serotype DV-1, UniProt P17763 573-680)
T1 construct: also called DENV-1; EDIII of DV-1
T1 chain: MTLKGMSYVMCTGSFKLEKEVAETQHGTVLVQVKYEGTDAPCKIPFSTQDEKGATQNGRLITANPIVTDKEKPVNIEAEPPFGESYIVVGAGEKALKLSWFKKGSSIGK
Readout Type: pKd
// pKd is dimensionless: -log10 of concentration (M)

Given the binder antibody B48 (antibody, V domains shown, also called mAb B48) VH: QVQLVQSGAEVKKPGASVKVSCKAGFNIKDTYMSWVRQAPEQGLEWMGRIDPENGDTKYDPKLQGRVTMTADTSTNTAYMELRSLRSDDTAVYYCARGWEGFAYWGQGTLVTVSS VL: DIVMTQSPASLAVSLGERATISCRASENVDKYGNSFMHWYQQKPGQPPKLLIYRASELQWGVPDRFSGSGSGTDFTLTISSLQAEDVAVYYCQRSNEVPWTFGQGTKLEIK , write its reported pKd.
9.91
